experiment: Bioavailability after a single oral tablet in beagle dogs (plasma LC/MS/MS, non-compartmental PK); assay type: in vivo; details: dog, male beagle dogs, fasted, pentagastrin pre-treated, single 25 mg strength tablet (dry granulation, 30% active), read-out: % F (oral bioavailability)
VALUE_KIND: bioavailability (%)
Give just the number in %; leave the unit off.

Req: Look up bioavailability of O=C(NCc1c(F)cc(F)cc1F)c1cn2c(c(O)c1=O)C(=O)N1[C@H]3CC[C@H](C3)O[C@@H]1C2 [Formula I Form III] and report it.
Resp: 10

Req: Could you please provide reported bioavailability for O=C(NCc1c(F)cc(F)cc1F)c1cn2c(c([O-])c1=O)C(=O)N1[C@H]3CC[C@H](C3)O[C@@H]1C2.[Na+] [Formula II Form I] ? Thanks!
Resp: 28
